Provenance of the data: patent EP1322622B1

# TARGET UNDER TEST: D4 human receptors (Homo sapiens)
# Construct: expressed in transfected cells; host or cells: CHO cells
# Sequence (P21917 whole entry): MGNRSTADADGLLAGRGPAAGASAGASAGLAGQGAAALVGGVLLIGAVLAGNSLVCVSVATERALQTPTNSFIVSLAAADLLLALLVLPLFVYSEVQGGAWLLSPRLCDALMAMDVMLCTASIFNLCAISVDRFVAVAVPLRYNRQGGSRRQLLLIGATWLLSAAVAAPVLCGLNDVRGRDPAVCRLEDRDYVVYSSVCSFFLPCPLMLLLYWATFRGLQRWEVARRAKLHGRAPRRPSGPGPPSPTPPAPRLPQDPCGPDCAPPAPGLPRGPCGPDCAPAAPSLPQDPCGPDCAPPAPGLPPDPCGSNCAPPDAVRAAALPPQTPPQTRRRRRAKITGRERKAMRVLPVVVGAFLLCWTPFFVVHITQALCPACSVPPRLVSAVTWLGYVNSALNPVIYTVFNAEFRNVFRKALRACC
# ASSAY SUMMARY: D4 Radioligand Receptor Binding Assay ([3H] YM-09151-2, CHO cell membranes)
# EXPERIMENTAL CONDITIONS: compound at 10^-7 M, singlicate; [3H] YM-09151-2 0.15-0.25 nM; read-out: D4 receptor binding assay % inhib. (10^-7 M)
I'd be grateful if you could share measured inhibition at 0.1 µM for these entries.
Answers are plain numbers, in %.

Please review the entries below; each comes with its answer.
[[record]]
smiles_input = "CCNC(=O)OCCn1c(=O)n(CCCCN2CCN(c3cccc(C(F)(F)F)c3)CC2)c2ccccc21"
observed_measurement = 39

[[record]]
smiles_input = "O=c1n(C/C=C\\CN2CCN(c3ccc(Cl)c(Cl)c3)CC2)c2ccccc2n1CCO"
observed_measurement = 95

[[record]]
smiles_input = "CCNC(=O)OCCn1c(=O)n(CC=CCN2CC=C(c3ccccc3)CC2)c2ccccc21"
observed_measurement = 34

[[record]]
smiles_input = "O=c1n(CC=CCN2CCc3c([nH]c4ccccc34)C2)c2ccccc2n1CCN1CCOCC1"
observed_measurement = 78

[[record]]
smiles_input = "CC(=O)NCCn1c(=O)n(CCN2CCN(c3cccc(C)c3C)CC2)c2ccccc21"
observed_measurement = 31

[[record]]
smiles_input = "COc1ccccc1N1CCN(CCCCn2c(=O)n(CCO)c3ccccc32)CC1"
observed_measurement = 62

[[record]]
smiles_input = "O=c1n(CCO)c2ccccc2n1CCCCN1CCN(c2cccc(Cl)c2)CC1"
observed_measurement = 82

[[record]]
smiles_input = "CCNC(=O)OCCn1c(=O)n(CCN2CCN(c3ccccc3OC)CC2)c2ccccc21"
observed_measurement = 44


Qu. Quick one: inhibition at 0.1 µM of O=c1n(C/C=C\CN2CCc3c([nH]c4ccccc34)C2)c2ccccc2n1CCO ?
Ans. 90

----------
# TARGET UNDER TEST: CHO/5-HT1A cells (Homo sapiens)
# Construct: expressed in transfected cells; host or cells: CHO/5-HT1A cells
# Sequence (P08908 whole entry): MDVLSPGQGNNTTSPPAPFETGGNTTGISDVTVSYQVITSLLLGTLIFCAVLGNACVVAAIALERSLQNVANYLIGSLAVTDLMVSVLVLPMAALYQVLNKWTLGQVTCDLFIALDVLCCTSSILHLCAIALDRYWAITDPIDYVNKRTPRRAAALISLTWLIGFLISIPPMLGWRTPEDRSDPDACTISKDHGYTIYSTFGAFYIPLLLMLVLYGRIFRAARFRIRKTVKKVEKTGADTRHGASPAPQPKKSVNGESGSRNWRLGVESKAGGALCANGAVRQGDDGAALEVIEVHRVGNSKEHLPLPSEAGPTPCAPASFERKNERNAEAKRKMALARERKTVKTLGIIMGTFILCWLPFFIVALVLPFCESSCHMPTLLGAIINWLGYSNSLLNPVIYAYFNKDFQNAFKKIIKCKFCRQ
# ASSAY SUMMARY: 5-HT1A Functional assay (cAMP)
# Type: cell-based
# EXPERIMENTAL CONDITIONS: 10 µM compound; % inhibition of the cAMP accumulation induced by 10 µM FSK
I'd be grateful if you could share measured 5-HT1A cAMP % inhib. for these entries.
Answers are plain numbers, in %.

Please review the entries below; each comes with its answer.
[[record]]
smiles_input = "CS(=O)(=O)NCCn1c(=O)n(CC=CCN2CCN(c3cccc(Cl)c3)CC2)c2ccccc21"
readout_kind = "5-HT1A cAMP % inhib."
observed_measurement = 67

[[record]]
smiles_input = "CCNC(=O)OCCn1c(=O)n(CC=CCN2CC=C(c3ccccc3)CC2)c2ccccc21"
readout_kind = "5-HT1A cAMP % inhib."
observed_measurement = 56

[[record]]
smiles_input = "CCNC(=O)OCCn1c(=O)n(CC=CCN2CCN(c3cccc(C(F)(F)F)c3)CC2)c2ccccc21"
readout_kind = "5-HT1A cAMP % inhib."
observed_measurement = 87


Qu. Quick one: 5-HT1A cAMP % inhib. of COCCn1c(=O)n(CC=CCN2CCN(c3cccc(C(F)(F)F)c3)CC2)c2ccccc21 ?
Ans. 83
